system: Caco-2; test: drug sensitivity score (DSS) for viability; higher = more toxic; extreme values may be limits of the assay; settings: 72 h
MEASURED_QUANTITY: drug sensitivity score

CC/C(=C(/c1ccc(OCCN(C)C)cc1)c1cccc(O)c1)c1ccccc1 [droloxifene] :: 3.4

Sure, the documented drug sensitivity score for CCCCCCCCCCCC(=O)N(CCO)CCO [lauric-diethanolamide] is 0

get_value(item= Oc1ccc2c3c1O[C@H]1c4[nH]c5ccccc5c4C[C@@]4(O)[C@@H](C2)N(CC2CC2)CC[C@]314 [naltrindole] , readout=drug sensitivity score) returns 0

* * *

tested on: HepG2; experiment: cell viability relative to DMSO; higher = less toxic; conditions: 72 h; 10 nM
MEASURED_QUANTITY: cell viability (%)
Form entry: value (%) — number only.

// worked examples, cell viability included
C[N+](C)(C)CCCCCC[N+](C)(C)C [hexamethonium] :: 96.7
CCC1(c2ccc(N)cc2)CCC(=O)NC1=O (stereo not given) [aminoglutethimide] :: 96
CNC(=O)ON(C(C)=O)C(=O)NC [caracemide] :: 104

For reference, reported cell viability for O=C(O)Cc1cccc(OCCCN(Cc2cccc(C(F)(F)F)c2Cl)CC(c2ccccc2)c2ccccc2)c1 [GW-3965] stands at 99.3

Per the record, CSc1ccccc1OCC(O)CNC(C)C (stereo not given) [tiprenolol] has cell viability of 92.6

* * *

tested on: Caco-2; assay: drug sensitivity score (DSS) for viability; higher = more toxic; extreme values may be limits of the assay; conditions: 72 h
MEASURED_QUANTITY: drug sensitivity score

CN(C)/N=N/c1[nH]cnc1C(N)=O :: 0

Known value: Caco-2 drug sensitivity score of the compound CC#CCC(C)[C@H](O)/C=C/[C@@H]1[C@H]2C/C(=C/CCCC(=O)O)C[C@H]2C[C@H]1O (some centres undefined) equals 0

Summary: `Nc1nc(=O)n([C@H]2C[C@H](O)[C@@H](CO)O2)cc1F` , Caco-2, drug sensitivity score = 0.1

Record `CCn1nc(C)c2c1C(c1ccccc1)=NCC(=O)N2` / Caco-2, drug sensitivity score recorded as 0

* * *

tested on: Caco-2; assay: cell viability relative to DMSO; higher = less toxic; conditions: 72 h; 10000 nM
MEASURED_QUANTITY: cell viability (%)
Respond numerically; units are % and should not be typed.

COc1ccc(-n2nc(C(F)(F)F)cc2-c2ccc(Cl)cc2)cc1 [SC-560] :: 86.6

Then there is this molecule:
So for C[C@H](Cc1cc2c(c(C(N)=O)c1)N(CCCO)CC2)NCCOc1ccccc1OCC(F)(F)F [silodosin] , the logged cell viability turned out to be 88.7

* * *

test system: HepG2; test: drug sensitivity score (DSS) for viability; higher = more toxic; extreme values may be limits of the assay; conditions: 72 h
drug sensitivity score: recorded values
Please reply with the value in numeric form only.

CCCCCCCCCCCC(=O)N(CCO)CCO [lauric-diethanolamide] :: 0
CCNC1=Nc2ccc(Cl)cc2C(C)(c2ccccc2)O1 (stereo not drawn) [etifoxine] :: 0
CC1(C)[C@@H]2C[C@@H](O)[C@@](C)(O)[C@H]1C2 [2,3-cis/exo-pinanediol] :: 0

For Oc1ccc2c3c1O[C@H]1c4oc5ccccc5c4C[C@@]4(O)[C@@H](C2)N(CC2CC2)CC[C@]314 [naltriben] on HepG2, measured drug sensitivity score was 0

Record O=C(O)CCCCC(CCSCc1ccccc1)SCc1ccccc1 (stereo not drawn) [CPI-613] / HepG2, drug sensitivity score recorded as 0

The compound C=C1/C(=C\C=C2/CCC[C@]3(C)[C@@H]([C@H](C)CCCC(C)(C)O)CC[C@@H]23)C[C@@H](O)C[C@@H]1O [calcitriol] , when measured on HepG2, yielded drug sensitivity score of 0

So the reported drug sensitivity score for O=[N+]([O-])c1cccc2cn[nH]c12 [7-nitroindazole] , on HepG2, turned out to be 0

* * *

tested on: Calu-3; assay: cell viability relative to DMSO; higher = less toxic; conditions: 72 h; 10 nM
MEASURED_QUANTITY: cell viability (%)
Just the number in %, nothing appended.

# annotated cases, reported cell viability shown
Cn1c(COc2ccc(CC3SC(=O)NC3=O)cc2)nc2ccccc2c1=O (configuration not stated) :: 95
O=C(O)c1cc(C(=O)O)c(C(=O)N(Cc2cccc(Oc3ccccc3)c2)[C@H]2CCCc3ccccc32)cc1C(=O)O :: 98.8
CN[C@H](CC(=O)O)C(=O)O :: 88.6
O=C1Nc2ccccc2C2(CCN(CCc3ccc(C(F)(F)F)cc3)CC2)O1 :: 98.7
Cc1ccc(S(=O)(=O)NCc2ccccc2)cc1 :: 100
Cc1ccc2c(=O)c3cccc(CC(=O)O)c3oc2c1C :: 86.7

Alright, here's another compound for you.
Value of cell viability reported for the compound `COc1cc2c(cc1Cc1cccc(Cl)c1F)c(=O)c(C(=O)O)cn2[C@H](CO)C(C)C` is 97.4

* * *

system: U2OS; assay: cell viability relative to DMSO; higher = less toxic; settings: 72 h; 1000 nM
MEASURED_QUANTITY: cell viability (%)
Express the result in % but write the number alone.

Example molecules with recorded cell viability:
C[C@H]1N=C(N(C)C)N=C(N)N1 :: 102
CS(=O)(=O)Nc1ccc(-c2coc3cc(OCc4cccc(C(=O)O)c4)ccc3c2=O)cc1 :: 105
C[C@]12CCC(=O)C[C@@H]1CC[C@@H]1[C@@H]2CC[C@]2(C)C=CC[C@@H]12 :: 99
Cn1c(COc2ccc(CC3SC(=O)NC3=O)cc2)nc2ccccc2c1=O (stereo not drawn) :: 91.8
C=C1/C(=C\C=C2/CCC[C@]3(C)[C@@H]([C@H](C)CCCC(C)(C)O)CC[C@@H]23)C[C@@H](O)C[C@@H]1O :: 103
COc1cc(Nc2c(C#N)cnc3cc(OCCCN4CCN(C)CC4)c(OC)cc23)c(Cl)cc1Cl :: 97.1

Lab book: cell viability of `O=C(COc1cccc2c(=O)[nH]ccc12)c1ccccc1` noted as 103

// recorded cell viability for `CCOc1ccc(Cc2cc([C@@H]3O[C@H](SC)[C@@H](O)[C@H](O)[C@H]3O)ccc2Cl)cc1` : 97.6

* * *

test system: Caco-2; assay: cell viability relative to DMSO; higher = less toxic; conditions: 72 h; 100 nM
MEASURED_QUANTITY: cell viability
The answer should read as a number with its unit following.

// known answers, use as guide
CC(C)(C)NC(=O)N[C@H](C(=O)N1C[C@H]2[C@@H]([C@H]1C(=O)NC(CC1CCC1)C(=O)C(N)=O)C2(C)C)C(C)(C)C (some centres not stated) :: 108%
CC1(C)CCC(C)(C)c2cc(C(=O)Nc3ccc(C(=O)O)cc3)ccc21 :: 98.1%
O[C@@](Cc1nc(CC2(C(F)(F)F)CC2)c[nH]1)(c1ccc(-n2cccn2)cc1)C(F)(F)F :: 98.8%

The compound listed as `COc1ccc2cccc(CCNC(C)=O)c2c1` shows cell viability equal to 104%

For CCOc1ccc(-n2c([C@@H](C)N(Cc3cccnc3)C(=O)Cc3ccc(F)c(C(F)(F)F)c3)nc3ncccc3c2=O)cc1 (racemic) the compound record lists cell viability as 99.3%

Per the records, this compound ( `N#Cc1cccc(-c2c[nH]c3ncnc(N4CCOCC4)c23)c1` ) has cell viability equal to 105%

Just so you know, measured cell viability for Cc1c(C)c2c(c(C)c1O)CCC(C)(C(=O)O)O2 (configuration not stated) came out at 88.5%

Lab note: `O=c1c(O)c(-c2cc(O)c(O)c(O)c2)oc2cc(O)cc(O)c12` gave cell viability of 98.8%

cell viability recorded for this compound, `C[C@]12CCC(=O)C[C@@H]1CC[C@@H]1[C@@H]2CC[C@]2(C)C=CC[C@@H]12` , is 93.9%

The compound `C[C@H](Cc1cc2c(c(C(N)=O)c1)N(CCCO)CC2)NCCOc1ccccc1OCC(F)(F)F` showed cell viability equal to 106%

Form: compound = `CC[C@H]1[C@@H](O)[C@@H]2[C@H](CC[C@]3(C)[C@@H]([C@H](C)CCC(=O)O)CC[C@@H]23)[C@@]2(C)CC[C@@H](O)C[C@@H]12` ; cell viability = 95%

* * *

Listed compounds paired with reported cell viability
system: Caco-2; experiment: cell viability relative to DMSO; higher = less toxic; settings: 72 h; 1 nM
Write the value in % as a bare number.

c1ccc(Cn2c(-c3ccc(OC[C@H](C4CCNCC4)n4c(-c5ccccc5)nc5ccccc54)cc3)nc3ccccc32)cc1 [deltarasin] :: 98.6
CC(C)[C@H](NS(=O)(=O)c1ccc(-c2ccc(Br)cc2)cc1)C(=O)O :: 96.3
O=C1Nc2ccccc2C2(CCN(CCc3ccc(C(F)(F)F)cc3)CC2)O1 :: 93.3

# cell viability of C/C(=C\C(N)C(=O)O)CP(=O)(O)O (stereo not drawn) = 102

Item: Oc1ccc2c3c1O[C@H]1c4oc5ccccc5c4C[C@@]4(O)[C@@H](C2)N(CC2CC2)CC[C@]314 [naltriben] | cell viability: 91.7

# cell viability (compound: `Cc1ccc2c(N3CCN(CCc4cccc(N5CCNC5=O)c4)CC3)cccc2n1` ) is 104

Given item Nc1ccn([C@@H]2CS[C@H](CO)O2)c(=O)n1 [lamivudine] , the value recorded as its cell viability is 83

Briefly, cell viability measured for O=C1Nc2ccc(Cl)c3c2C1(CCCCN1CC=C(c2ccc(Cl)cc2)CC1)CCC3 (stereo not drawn) [DR-4485] : 103

cell viability in this record for Cc1ccc(N(CC2=NCCN2)c2cccc(O)c2)cc1 [phentolamine] : 99

# cell viability (compound: `CC(C)OC(=O)c1cc2c(OC[C@@H](O)CNC(C)(C)C)cccc2[nH]1` ) is 92.3

Reported cell viability for CC1(C)CCC(C)(C)c2cc(C#Cc3ccc(C(=O)O)cc3)ccc21 [EC-23] was 104

Please fill in: cell viability reported for CCOc1ccc(-n2c([C@@H](C)N(Cc3cccnc3)C(=O)Cc3ccc(OC(F)(F)F)cc3)nc3ncccc3c2=O)cc1 (racemic) [AMG-487-(+/-)] = 94

Entry CCCCC/C=C\C=C\CCCCCCCCC(=O)O [trans-10,cis-12-conjugated-linoleic-acid] ; cell viability = 94.9

Note to self: cell viability recorded for CC/C(=C(/CC)c1ccc(O)cc1)c1ccc(O)cc1 [diethylstilbestrol] was 97.7

Form: compound = COc1ccc(-c2cc(=S)ss2)cc1 [anethole-trithione] ; cell viability = 99.3

cell viability measured on CC#CCC(C)[C@H](O)/C=C/[C@@H]1[C@H]2C/C(=C/CCCC(=O)O)C[C@H]2C[C@H]1O (stereo partly drawn) [iloprost] = 92.2

The compound identified as C[C@H]1CC[C@H](n2c3cnccc3c3cnc(Nc4ccc5c(n4)CCN(C(=O)CO)C5)nc32)CC1 [AMG-925] registered its cell viability at 112

C[C@H]1N=C(N(C)C)N=C(N)N1 [imeglimin] yielded cell viability of 86.3

Cited source for all entries: the supplement of paper PMC13380429
